Measured values drawn from ChEMBL document CHEMBL5291721 for this set.

target: Beta-2 adrenergic receptor (Homo sapiens, UniProt P07550); also: assay procedure not described here
Sequence (P07550 whole entry): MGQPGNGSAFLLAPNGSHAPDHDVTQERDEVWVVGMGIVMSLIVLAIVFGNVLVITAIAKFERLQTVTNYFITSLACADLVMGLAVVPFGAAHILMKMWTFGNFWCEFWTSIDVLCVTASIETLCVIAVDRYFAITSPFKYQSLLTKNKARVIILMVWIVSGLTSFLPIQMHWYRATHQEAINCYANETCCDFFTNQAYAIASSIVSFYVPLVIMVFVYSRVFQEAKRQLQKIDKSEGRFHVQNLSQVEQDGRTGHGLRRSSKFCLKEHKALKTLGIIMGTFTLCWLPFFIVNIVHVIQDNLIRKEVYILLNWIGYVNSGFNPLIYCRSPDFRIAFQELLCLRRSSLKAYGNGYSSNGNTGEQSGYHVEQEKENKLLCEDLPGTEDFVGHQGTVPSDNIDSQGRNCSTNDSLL
Entries annotated with measured AC50

Query block: State the recorded AC50 for this entry: CC=CC1=C(C(=O)O)N2C(=O)[C@@H](NC(=O)[C@H](N)c3ccc(O)cc3)[C@H]2SC1 [CEFPROZIL]
Result block: > 30 µM

Query block: Looking for the measured AC50 of O=C(O)Cc1ccccc1Oc1ccc(Cl)cc1Cl [FENCLOFENAC] , can you help?
Result block: > 10 µM

Query block: # AC50 lookup, item CC(C)[C@H](N)C(=O)OCCOCn1cnc2c(=O)[nH]c(N)nc21 [VALACYCLOVIR]
Result block: > 10 µM

Query block: Need AC50, item CCN1CCCC1CNC(=O)c1cc(S(=O)(=O)CC)ccc1OC (centres undefined) [SULTOPRIDE]
Result block: > 30 µM

###

target: 5-hydroxytryptamine receptor 2B (Homo sapiens); format: functional, cell-based
Sequence (P41595 whole entry): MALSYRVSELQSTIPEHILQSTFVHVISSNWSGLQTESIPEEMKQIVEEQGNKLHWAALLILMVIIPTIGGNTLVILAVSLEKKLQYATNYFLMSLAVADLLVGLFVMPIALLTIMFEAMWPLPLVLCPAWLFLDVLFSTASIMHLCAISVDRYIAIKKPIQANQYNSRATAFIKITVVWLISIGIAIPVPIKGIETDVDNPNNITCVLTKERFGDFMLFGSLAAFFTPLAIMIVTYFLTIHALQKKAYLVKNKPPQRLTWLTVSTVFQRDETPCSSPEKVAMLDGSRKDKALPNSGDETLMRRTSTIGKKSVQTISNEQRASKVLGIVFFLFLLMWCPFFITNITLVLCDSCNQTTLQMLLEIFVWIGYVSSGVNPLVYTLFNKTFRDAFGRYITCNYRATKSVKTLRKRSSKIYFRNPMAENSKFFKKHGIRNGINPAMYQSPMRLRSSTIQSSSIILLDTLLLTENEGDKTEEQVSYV
observable: AC50

Worked examples follow.
# compound, value_measured
rows = [
    ("NS(=O)(=O)c1cc2c(cc1Cl)N=C(CSCc1ccccc1)NS2(=O)=O [BENZTHIAZIDE]", "> 10 µM"),
    ("CN1CCN=C(c2ccccc2)c2cc(Cl)ccc21", "> 30 µM"),
    ("C[N+]12CCC(CC1)C(OC(=O)C(O)(c1ccccc1)c1ccccc1)C2 (stereo not given)", "> 30 µM"),
]

Query block: What AC50 value was documented for this compound, O=C(CCCN1CCC(O)(c2ccc(Br)cc2)CC1)c1ccc(F)cc1 ?
Result block: 7.3 µM

Query block: Using the record for COC(=O)C1=C(C)NC(C)=C(C(=O)OCCN2CCN(C(c3ccccc3)c3ccccc3)CC2)C1c1cccc([N+](=O)[O-])c1 (stereo not given) , report its AC50.
Result block: > 30 µM

Query block: Look up AC50: O=C1c2ccccc2C(=O)C1c1ccccc1
Result block: 18 µM

###

Parameter AC50, tested on Neuronal acetylcholine receptor subunit alpha-4 (Homo sapiens, UniProt P43681), listed per item. Also: assay procedure not described here.
Sequence (P43681 whole entry): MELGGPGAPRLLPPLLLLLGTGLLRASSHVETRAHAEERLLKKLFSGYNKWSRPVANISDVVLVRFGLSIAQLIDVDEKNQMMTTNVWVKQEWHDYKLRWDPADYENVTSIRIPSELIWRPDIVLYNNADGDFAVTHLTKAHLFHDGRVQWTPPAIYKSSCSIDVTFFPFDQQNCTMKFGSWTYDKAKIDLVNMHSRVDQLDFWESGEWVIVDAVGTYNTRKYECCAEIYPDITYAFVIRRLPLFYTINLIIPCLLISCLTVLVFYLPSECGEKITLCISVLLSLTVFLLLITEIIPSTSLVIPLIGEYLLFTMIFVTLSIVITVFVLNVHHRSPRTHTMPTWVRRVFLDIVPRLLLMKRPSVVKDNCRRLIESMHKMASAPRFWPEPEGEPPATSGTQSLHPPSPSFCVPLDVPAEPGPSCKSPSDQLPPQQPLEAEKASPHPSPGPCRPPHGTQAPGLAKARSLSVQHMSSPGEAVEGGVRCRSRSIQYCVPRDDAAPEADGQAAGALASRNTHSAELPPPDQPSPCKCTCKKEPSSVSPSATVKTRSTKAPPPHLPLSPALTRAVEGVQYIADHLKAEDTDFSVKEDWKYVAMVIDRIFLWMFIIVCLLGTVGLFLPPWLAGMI

Known results for compounds:
# compound, AC50
measured = [
    ("CCN1CCCC1CNC(=O)c1cc(S(=O)(=O)CC)ccc1OC (configuration not stated) [SULTOPRIDE]", "> 30 µM"),
    ("CC(=O)O[C@]1(C(C)=O)CC[C@H]2[C@@H]3C=C(Cl)C4=CC(=O)[C@@H]5C[C@@H]5[C@]4(C)[C@H]3CC[C@@]21C [CYPROTERONE ACETATE]", "> 10 µM"),
    ("CCc1cc2c(s1)-n1c(C)nnc1CN=C2c1ccccc1Cl", "> 30 µM"),
    ("O=C1c2cccc3c2[C@H](CCC3)CN1[C@@H]1CN2CCC1CC2", "38.5 µM"),
    ("OC[C@H]1O[C@@H](n2cnc3c2NC=NC[C@H]3O)C[C@@H]1O", "> 30 µM"),
]

Query block: # query: AC50 of entry CC(CN(C)C)C(C)(O)Cc1ccc(Cl)cc1 (configuration not stated)
Result block: > 10 µM

Query block: I'd like to know its AC50. The compound in question is CCCN1CCCC[C@H]1C(=O)Nc1c(C)cccc1C
Result block: > 30 µM

Query block: Tell me the measured AC50 of CC(O)(CS(=O)(=O)c1ccc(F)cc1)C(=O)Nc1ccc(C#N)c(C(F)(F)F)c1 (configuration not stated) [BICALUTAMIDE] , please.
Result block: > 30 µM

Query block: So what does the record say about AC50 for O=C(O)c1cccnc1Nc1cccc(C(F)(F)F)c1 ?
Result block: > 10 µM

Query block: Would you mind telling me what AC50 value was observed for Oc1cc(O)c(Cl)cn1 ?
Result block: > 30 µM

Query block: Data request, read-out AC50, for COC(=O)[C@H]1[C@H]2C[C@@H]3c4[nH]c5cc(OC)ccc5c4CCN3C[C@H]2C[C@@H](OC(=O)c2cc(OC)c(OC)c(OC)c2)[C@@H]1OC
Result block: > 10 µM

###

Quick note: these are AC50 numbers for system: Sodium-dependent dopamine transporter (Homo sapiens); also: assay procedure not described here
Sequence (Q01959 whole entry): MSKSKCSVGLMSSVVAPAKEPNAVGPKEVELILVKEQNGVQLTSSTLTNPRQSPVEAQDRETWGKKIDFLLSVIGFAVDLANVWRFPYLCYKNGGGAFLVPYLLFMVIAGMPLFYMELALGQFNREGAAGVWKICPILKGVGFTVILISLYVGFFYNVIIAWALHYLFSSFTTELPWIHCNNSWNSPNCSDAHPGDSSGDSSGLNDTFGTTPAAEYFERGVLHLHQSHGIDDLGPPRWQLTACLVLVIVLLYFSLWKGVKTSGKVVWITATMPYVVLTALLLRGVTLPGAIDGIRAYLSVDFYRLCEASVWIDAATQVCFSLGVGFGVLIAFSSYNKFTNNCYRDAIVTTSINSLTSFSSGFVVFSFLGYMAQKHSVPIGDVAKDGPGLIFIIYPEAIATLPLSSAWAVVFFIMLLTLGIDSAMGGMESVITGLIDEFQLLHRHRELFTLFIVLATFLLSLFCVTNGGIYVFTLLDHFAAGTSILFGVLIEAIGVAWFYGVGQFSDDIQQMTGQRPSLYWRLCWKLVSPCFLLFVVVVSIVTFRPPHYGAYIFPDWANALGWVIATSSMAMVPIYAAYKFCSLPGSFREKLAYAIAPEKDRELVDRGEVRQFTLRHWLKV

Recorded AC50, per entry:
# compound, AC50
records = [
    ("C[N+](C)(CCCCCC[N+](C)(C)C1c2ccccc2-c2ccccc21)C1c2ccccc2-c2ccccc21 [HEXAFLUORENIUM]", "4.5 µM"),
    ("c1ccc2c(SC3=NCCN3)c[nH]c2c1 [TINAZOLINE]", "> 30 µM"),
    ("N=C(N)N/N=C/c1c(Cl)cccc1Cl [GUANABENZ]", "12.8 µM"),
    ("CC[C@]12CCCN3CCc4c(n(c5ccccc45)[C@@](O)(C(=O)OC)C1)[C@@H]32 [VINCAMINE]", "> 30 µM"),
    ("CC(=O)[C@]1(N)Cc2c(O)c3c(c(O)c2[C@@H](O[C@H]2C[C@H](O)[C@H](O)CO2)C1)C(=O)c1ccccc1C3=O [AMRUBICIN]", "> 30 µM"),
    ("Cc1cc2c(cc1S(N)(=O)=O)S(=O)(=O)CCC2", "> 30 µM"),
    ("C[C@@H]1C[C@H]2[C@@H]3C[C@H](F)C4=CC(=O)C=C[C@]4(C)[C@@]3(F)[C@@H](O)C[C@]2(C)[C@@]1(OC(=O)c1ccco1)C(=O)SCF [FLUTICASONE FUROATE]", "> 30 µM"),
]

Now for the compound whose AC50 we want.
Query block: Please look up its AC50: CC1(C)S[C@@H]2[C@H](/N=C/N3CCCCCC3)C(=O)N2[C@H]1C(=O)O [AMDINOCILLIN]
Result block: > 30 µM

###

molecular target: 5-hydroxytryptamine receptor 2B (Homo sapiens); assay type: functional, cell-based
observable: AC50

Completed entries (count: 6):
# compound, AC50
rows = [
    ("CC(C)[C@H](N)C(=O)OCCOCn1cnc2c(=O)[nH]c(N)nc21 [VALACYCLOVIR]", "> 10 µM"),
    ("CC(C)[C@@H](C)/C=C/[C@@H](C)[C@H]1CC[C@H]2/C(=C/C=C3\\C[C@@H](O)CC[C@@H]3C)CCC[C@]12C [DIHYDROTACHYSTEROL]", "> 10 µM"),
    ("OC[C@H]1O[C@@H](n2cnc3c2NC=NC[C@H]3O)C[C@@H]1O [PENTOSTATIN]", "> 30 µM"),
    ("O=S1(=O)CCN(CN2CCS(=O)(=O)NC2)CN1 [TAUROLIDINE]", "> 30 µM"),
    ("CN1CCN=C(c2ccccc2)c2cc(Cl)ccc21 [MEDAZEPAM]", "> 30 µM"),
    ("CCCNC(=O)NS(=O)(=O)c1ccc(Cl)cc1 [CHLORPROPAMIDE]", "> 10 µM"),
]

Query block: Which measured AC50 value corresponds to CCC(=O)O[C@](Cc1ccccc1)(c1ccccc1)[C@H](C)CN(C)C [PROPOXYPHENE] ?
Result block: > 10 µM

Query block: Recorded AC50 for CCCCCCCC(=O)CC[C@@H]1[C@@H](C/C=C\CCCC(=O)OC(C)C)[C@@H](O)C[C@H]1O [UNOPROSTONE ISOPROPYL] , please?
Result block: > 30 µM

Query block: Consider the compound shown here: CC(c1cc2ccccc2s1)N(O)C(N)=O (stereo not drawn) [ZILEUTON] What is its recorded AC50?
Result block: > 10 µM

Query block: Dear colleague, I am looking for the recorded AC50 of the following compound: O=C(O)c1ccc(NC(=O)[C@H](Cc2ccc(O)cc2)NC(=O)c2ccccc2)cc1 [BENTIROMIDE]
Result block: > 10 µM

Query block: Which AC50 is listed for CC=CC1=C(C(=O)O)N2C(=O)[C@@H](NC(=O)[C@H](N)c3ccc(O)cc3)[C@H]2SC1 [CEFPROZIL] ?
Result block: > 30 µM

Query block: Need AC50 of CCCc1cc(=O)[nH]c(=S)[nH]1 [PROPYLTHIOURACIL] , thanks.
Result block: > 10 µM

Query block: Requested read-out: AC50. Entry: Clc1ccc(CCC(Cn2ccnc2)Sc2c(Cl)cccc2Cl)cc1 (stereo not drawn) [BUTOCONAZOLE]
Result block: > 30 µM

Query block: I'd like to know its AC50. The compound in question is Cn1cc(C(=O)[C@@H]2CCc3nc[nH]c3C2)c2ccccc21 [RAMOSETRON]
Result block: > 30 µM

Query block: Bench note: what AC50 did Cc1ccccc1N1C(=O)c2cc(S(N)(=O)=O)c(Cl)cc2NC1C (stereo not drawn) [METOLAZONE] show?
Result block: > 10 µM

Query block: I would be grateful if you could share the reported AC50 for C[C@@H]1C[C@H]2[C@@H]3CCC4=CC(=O)C=C[C@]4(C)[C@@]3(F)[C@@H](O)C[C@]2(C)[C@@]1(O)C(=O)CO [DEXAMETHASONE] .
Result block: > 10 µM

Query block: Look up AC50: CC(CN(C)C)C(C)(O)Cc1ccc(Cl)cc1 (stereo not drawn) [CLOBUTINOL]
Result block: > 10 µM

Query block: Record request: AC50 value, item CCc1nc(N)nc(N)c1-c1ccc(Cl)cc1 [PYRIMETHAMINE]
Result block: 37 µM
